Biological target: δ opioid receptors (Mus musculus, UniProt P32300)
Construct: Bioassays Using Isolated Organ Preparations; from tissue; host or cells: mouse vas deferens (isolated organ)
Sequence (P32300 whole entry): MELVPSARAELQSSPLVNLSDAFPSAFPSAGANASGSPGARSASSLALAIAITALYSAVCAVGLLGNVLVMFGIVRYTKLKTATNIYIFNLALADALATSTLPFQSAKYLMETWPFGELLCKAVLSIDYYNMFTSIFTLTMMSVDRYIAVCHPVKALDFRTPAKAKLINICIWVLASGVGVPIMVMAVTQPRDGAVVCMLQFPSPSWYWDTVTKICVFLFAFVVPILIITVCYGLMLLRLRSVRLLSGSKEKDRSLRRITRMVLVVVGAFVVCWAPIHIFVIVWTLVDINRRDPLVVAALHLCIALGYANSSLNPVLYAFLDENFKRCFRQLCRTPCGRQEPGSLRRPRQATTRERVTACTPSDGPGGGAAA
Assay: Mouse vas deferens (MVD) bioassay, antagonism of electrically evoked contraction inhibition by δ-selective agonists
Assay type: tissue-based
Settings: Ke (nM) against [Leu5]Enkephalin, MVD assay; δ agonist [Leu5]enkephalin; means of 3-8 determinations
Text: a) Biosassys based on inhibition of electrically evoked contractions of the mouse vas deferens (MVD) and of the guinea pig ileum (GPI). In the GPI assay the opioid effect is primarily mediated by μ opioid receptors, whereas in the MVD assay the inhibition of the contractions is mostly due to interaction with δ opioid receptors. The GPI and MVD bioassays were carded out as reported in P. W. Schiller et al., Biochem. Biophys. […]
Peptide text beside a SMILES is read from it.
measurement.kind: Kb (nM)
All answers are understood in nM, so give the number only.

compound: N[C@@H](Cc1ccc(O)cc1)C(=O)N1Cc2ccccc2C[C@H]1C(=O)N[C@@H](Cc1ccc2ccccc2c1)C(=O)N[C@@H](Cc1ccccc1)C(=O)O [HTyrTic-2-NalPheOH, H-Tyr-Tic-2-Nal-Phe-OH] (HELM PEPTIDE1{Y.[Tic].[O=C([C@H](Cc1ccc2ccccc2c1)N[*:1])[*:2]].F}$$$$V2.0)
measurement.kind: Kb
display.unit: nM
reported: 2.64

Item CN[C@@H](Cc1ccc(O)cc1)C(=O)N1Cc2ccccc2C[C@H]1CN[C@@H](CCc1ccccc1)C(=O)N[C@@H](Cc1ccccc1)C(=O)O [Tyr(NMe)-Tic.psi.[CH2NH]HfePheOH, Tyr(NMe)-Tic.PSI.[CH2 --NH]Hfe-Phe-OH] : provide Kb 0.78

====

Target: δ opioid receptors (Mus musculus, UniProt P32300)
Construct: Bioassays Using Isolated Organ Preparations; from tissue; host or cells: mouse vas deferens (isolated organ)
Assay: Mouse vas deferens (MVD) bioassay, antagonism of electrically evoked contraction inhibition by δ-selective agonists
Assay type: tissue-based
Settings: Ke (nM) against [D-Ala2]deltorphin I, MVD assay; δ agonist [D-Ala2]deltorphin I; means of 3-8 determinations
Peptide text beside a SMILES is read from it.
Here, each record is paired with measured Kb data.
All answers are understood in nM, so give the number only.

In the examples that follow, each entry is paired with its recorded Kb.
compound: NC(=O)[C@H](Cc1ccccc1)NC(=O)[C@H](Cc1c[nH]c2ccccc12)NC(=O)[C@@H]1Cc2ccccc2CN1C(=O)[C@@H](N)Cc1ccc(O)cc1 [HTyrTicTrpPheNH2, H-Tyr-Tic-Trp-Phe-NH2] (HELM PEPTIDE1{Y.[Tic].W.F.[am]}$$$$V2.0)
Kb [nM]: 2.31
//
compound: Cc1cc(O)cc(C)c1C[C@H](N)C(=O)N1Cc2ccccc2C[C@H]1CN[C@@H](Cc1ccccc1)C(=O)N[C@@H](Cc1ccccc1)C(=O)O [HDmtTic.psi.[CH2NH]PhePheOH, H-Dmt-Tic.PSI.[CH2 --NH]Phe-Phe-OH]
Kb [nM]: 0.157

Item NC(=O)[C@H](Cc1ccccc1)NC(=O)[C@H](Cc1ccccc1)NC(=O)[C@@H]1Cc2ccccc2CN1C(=O)[C@@H](N)Cc1ccc(O)cc1 [HTyrTicPhePheNH2, H-Tyr-Tic-Phe-Phe-NH2] (HELM PEPTIDE1{Y.[Tic].F.F.[am]}$$$$V2.0) : provide Kb 14.4

Item N[C@@H](Cc1ccc(O)cc1)C(=O)N1Cc2ccccc2C[C@H]1C(=O)N[C@@H](Cc1c[nH]c2ccccc12)C(=O)N[C@@H](Cc1ccc([N+](=O)[O-])cc1)C(=O)O [HTyrTicTrpPhe(pNO2)OH, H-Tyr-Tic-Trp-Phe(pNO2)-OH] (HELM PEPTIDE1{Y.[Tic].W.[O=C(O)[C@H](Cc1ccc([N+](=O)[O-])cc1)N[*:1]]}$$$$V2.0) : provide Kb 2.27
